# Tested on: 843782-103-R-J1-PDC complex spheroid viability
# Assay protocol: Anticancer human tumor 843782-103-R-J1-PDC patient-derived lung adenocarcinoma cell line growth inhibition [RAS]
# Condition description: second compound 0.000949 µM; first compound 0.01 µM; active compounds read low
Test readout: viability, T/C

[
  {
    "Molecule": "C=CC(=O)N1CCN(c2nc(OCC3CCCN3C)nc3c(F)c(-c4nc(N)cc(C)c4C(F)(F)F)c(Cl)cc23)C(C)C1 (configuration not stated) + CCn1c(-c2cc(N3CCN(C)CC3)cnc2C(C)OC)c2c3cc(ccc31)-c1csc(n1)CC(NC(=O)C1CC1C)C(=O)N1CCCC(N1)C(=O)OCC(C)(C)C2",
    "viability, T/C": "64.9%"
  }
]

Consider now this further molecule.
Give its viability, T/C value. Item: C=CC(=O)Nc1cc(Nc2nccc(-c3cn(C)c4ccccc34)n2)c(OC)cc1N(C)CCN(C)C + CCn1c(-c2cc(N3CCN(C)CC3)cnc2C(C)OC)c2c3cc(ccc31)-c1csc(n1)CC(NC(=O)C1CC1C)C(=O)N1CCCC(N1)C(=O)OCC(C)(C)C2
69%

###

# System: 843782-103-R-J1-PDC complex spheroid viability
# Assay protocol: Anticancer human tumor 843782-103-R-J1-PDC cell line growth inhibition [RAS]; active means viability on the fitted dose curve at most 10% of control; inactive means the rest;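 also: viability read after seven days of compound exposure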
# Condition description: second compound 0.00949 µM; first compound 1 µM
Result category, one only: active, inactive

Previously resolved entries follow.
[
  {
    "Compound": "C[C@@H](NC(=O)c1ncnc(N)c1Cl)c1ncc(C(=O)Nc2cc(C(F)(F)F)c(Cl)cn2)s1 + CCn1c(-c2cc(N3CCN(C)CC3)cnc2C(C)OC)c2c3cc(ccc31)-c1csc(n1)CC(NC(=O)C1CC1C)C(=O)N1CCCC(N1)C(=O)OCC(C)(C)C2",
    "System under test": "843782-103-R-J1-PDC complex spheroid viability",
    "Class assignment": "inactive"
  },
  {
    "Compound": "Nc1ccn(C2OC(CO)C(O)C2(F)F)c(=O)n1 (centres undefined) + CCn1c(-c2cccnc2C(C)OC)c2c3cc(ccc31)N1CCOC(CC(NC(=O)C(C(C)C)N(C)C(=O)C3(F)CCN(C(=O)C#CC(C)(C)N(C)C)CC3)C(=O)N3CCCC(N3)C(=O)OCC(C)(C)C2)C1",
    "System under test": "843782-103-R-J1-PDC complex spheroid viability",
    "Class assignment": "active"
  },
  {
    "Compound": "C=CC(=O)N1CCN(c2nc(OCC3CCCN3C)nc3c(F)c(-c4nc(N)cc(C)c4C(F)(F)F)c(Cl)cc23)C(C)C1 (centres undefined) + CCn1c(-c2cccnc2C(C)OC)c2c3cc(ccc31)N1CCOC(CC(NC(=O)C(C(C)C)N(C)C(=O)C3(F)CCN(C(=O)C#CC(C)(C)N(C)C)CC3)C(=O)N3CCCC(N3)C(=O)OCC(C)(C)C2)C1",
    "System under test": "843782-103-R-J1-PDC complex spheroid viability",
    "Class assignment": "inactive"
  }
]

Attention now shifts to the item below.
Just curious, what result did CCN1CCN(Cc2ccc(Nc3ncc(F)c(-c4cc(F)c5nc(C)n(C(C)C)c5c4)n3)nc2)CC1 + CCn1c(-c2cccnc2C(C)OC)c2c3cc(ccc31)N1CCOC(CC(NC(=O)C(C(C)C)N(C)C(=O)C3(F)CCN(C(=O)C#CC(C)(C)N(C)C)CC3)C(=O)N3CCCC(N3)C(=O)OCC(C)(C)C2)C1 get here?
inactive
